Source: paper PMC12136788

# system: T1, UNK ZnF1-3 (human, UniProt Q9C0B0 31-174)
# T1 sequence: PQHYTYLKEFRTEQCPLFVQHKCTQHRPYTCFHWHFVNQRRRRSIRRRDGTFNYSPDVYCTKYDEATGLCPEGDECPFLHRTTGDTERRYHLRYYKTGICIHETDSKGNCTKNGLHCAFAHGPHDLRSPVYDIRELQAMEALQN
# assay_method_text: nsRBNS (natural sequence RNA bind-n-seq); RBNS binding buffer (assumed for nsRBNS): 25 mM Tris pH 7.5, 150 mM KCl, 3 mM MgCl2, 0.01% Triton X-100, 500 ug/ml BSA, 20 U/ml SUPERase-In, 4 C; UNK is unkempt and MSI1 is Musashi-1; names of the RNAs are library labels; protein concentration not given here; high values mean tight binding
Over roughly 24,000 sequences, “enrichment r” has its median near 0.99; the highest 2% begin near 3.7. This is one part of a sample in which the highest values are shown more often than they occur.
Quick reference: log10 binding signal of the listed items.
Quick note: numbers are log10 of binding signal, with enrichment R as the unit.

>>> experimental_result("chr2:42543136:42543137:+_ENSG00000143924_ENST00000318522|hu_mus|FALSE|FALSE (ssRNA) RNA: GGGAGUUCUACAGUCCGACGAUCAUCUACUGAGUAGCGCAUCACAGACAGCUGCUCAUUGCCAUCCGUGUGGAUUGACACCAGAUCUCUUGUUUCUGCAUCCAGAACAAACCACCUGCCUGAGUGCGUUCCAAUGGCUACCACCAACAGAGGAUUGAGCAUCA")
-0.08
>>> experimental_result("2747543_2750058_4223_CDS_ENSG00000101596_ENST00000320876|human|control|control (ssRNA) RNA: GGGAGUUCUACAGUCCGACGAUCUUGGUUUGAAGGCAUGAGCUUUAAAUUGCUAGCUUUUGUAAGACUUAUUUUAACAUGUUGUACCGGUGCUGGAUUAUCCCACUGAUCACAAAGUUGAACAAUAAUAGGGUUCUGUAAAUCCAACAGAGGAUUGAGCAUCA")
0.07
>>> experimental_result("chr8:13019523:13019524:+_ENSMUSG00000031442_ENSMUST00000123811|mus_mus|FALSE|FALSE (ssRNA) RNA: GGGAGUUCUACAGUCCGACGAUCUUAAAGUUUUGAGGCCAGAGUACCACAAAAAAUGGCCAUGGGGUUAAUCCCUGUUUAAAAAAAAUCAAAAACUUAUAAAAGACGAGAGUCCCUUGACCCCCCCUUAGGCUGUUGGUAGCACAACAGAGGAUUGAGCAUCA")
0.62
>>> experimental_result("chr13:107772667:107772668:-_ENSMUSG00000021693_ENSMUST00000022204|mus_hu|motif|central (ssRNA) RNA: GGGAGUUCUACAGUCCGACGAUCCAUUUCAUUAGGAGCUGAGUCAUCAAAGGCAUAAUCAAAACGAAAUGUUUGGUUUUCGGGGUACCUUGUUAAAUCUACUUUUUGUUUUGGUUCAUGUACCAUCACAACAUCUUUACUAGGCAACAGAGGAUUGAGCAUCA")
0.01
>>> experimental_result("14029136_14029256_1416_CDS_ENSG00000175595_ENST00000311895|human|control|control (ssRNA) RNA: GGGAGUUCUACAGUCCGACGAUCUUUUUUCUUUUUGAGGGUUCUUUCUUUGGUAGAAGCCCGUUCUUUGUUUUGGGGGUCUUUAGGUCUUUUGUGAGAUUUCCUAAUUCUCUUUGAACUGUCUUCCUUCCUAAAUUUCAUCCACAACAGAGGAUUGAGCAUCA")
-0.76
>>> experimental_result("chrX:101157612:101157613:-_ENSMUSG00000056537_ENSMUST00000070705|mus_mus|motif|central (ssRNA) RNA: GGGAGUUCUACAGUCCGACGAUCAAAUUAUCAGUAACAGGUUAGCAAUUCAUCUGGUACCGAAAUCAAAUGUUUAAGUCCGGAAAUGUUGUUUUUAAAAUAUUCUUUCCAUCCUGAAAGAGAAACUAGAGAAAAGGCAUGAUACAACAGAGGAUUGAGCAUCA")
0.12
>>> experimental_result("chr2:125083379:125083380:+_ENSMUSG00000027203_ENSMUST00000082122|mus_mus|FALSE|FALSE (ssRNA) RNA: GGGAGUUCUACAGUCCGACGAUCUUAAAAAAAAUUACAAAUGAUACAGCAAUUAUGAUCAAAAACAGUUUUUGGAAGGCUAUAAUUUAAAUAAUACAACAACAACAAAAAAUCUAACUGUACCCUGGGUUUUACCAAGUCUGCCAACAGAGGAUUGAGCAUCA")
0.62
>>> experimental_result("chr15:57879074:57879075:-_ENSMUSG00000022361_ENSMUST00000070143|mus_hu|FALSE|FALSE (ssRNA) RNA: GGGAGUUCUACAGUCCGACGAUCCAGCUGUCUGAGUGAGGAAAUCAGCUACAUUGCAGCAUUUUGGAAUUACUAAUAAAGCUAUAGUUAAAAAAUAAAAAGUUUAUAAAAAUGAAAGCAGCAUGCAUAUUCAAGGCUUUUUCACAACAGAGGAUUGAGCAUCA")
0.86

Indicate its recorded log10 binding signal; the binder in question is chr2:44571030:44571031:-_ENSG00000138078_ENST00000409411|hu_hu|FALSE|FALSE (ssRNA) RNA: GGGAGUUCUACAGUCCGACGAUCUCUUAUCUUGGCAGCCACAUAUUUUUCAUCUGGAGCAACUCUGAUACAAUCAAUGAAGGGCUGGUCUAACUUAAGUUCCUCCAAAUUGAAUAAAACUUCAUAAUUAUCAUUGUCUGCUUCCAACAGAGGAUUGAGCAUCA
0.00

Look up and report measured log10 binding signal for this entry: chr12:111890518:111890519:-_ENSG00000204842_ENST00000389154|hu_hu|FALSE|FALSE (ssRNA) RNA: GGGAGUUCUACAGUCCGACGAUCUUGGAUGUUACAAGAAAUCAACAUAUAUAUUUUAAAAACAAAAUAAAUGAAAUUCUAGUUUUCUGUGCUUCCAGUUGGUAGAAGCAGUAGAAGGGAGGAGGGAAUUUGGCCUUUCGGUUCCAACAGAGGAUUGAGCAUCA
0.03

Report log10 binding signal for chr8:90938390:90938391:+_ENSG00000164823_ENST00000451899|hu_hu|motif|central (ssRNA) RNA: GGGAGUUCUACAGUCCGACGAUCAAGAAUAUGAAGUACCUGUCAAGGUUUCAACGAUAAAAAUAUUUUUUAAAAGACCCGGUUUGGUAAUAAAUUAGAUUUAUACAAUUGAUAAUUUCAAAAUAAAUAAAAUCUGAGUUGUAACAACAGAGGAUUGAGCAUCA
0.78

Input chr8:90938390:90938391:+_ENSG00000164823_ENST00000451899|hu_hu|FALSE|FALSE (ssRNA) RNA: GGGAGUUCUACAGUCCGACGAUCAAGAAUAUGAAGUACCUGUCAAGGUUUCAACGAUAAAAAUAUUUUUUAAAAGACCCUAUUUGGUAAUAAAUUAGAUUUAUACAAUUGAUAAUUUCAAAAUAAAUAAAAUCUGAGUUGUAACAACAGAGGAUUGAGCAUCA , output reported log10 binding signal.
0.36

Name the recorded log10 binding signal of the item 178098831_178098951_708_CDS_ENSG00000116044_ENST00000397062|human|control|control (ssRNA) RNA: GGGAGUUCUACAGUCCGACGAUCGAAAAAGGCUUUCUCUUGCUCCUUUUGGAGUUGUUCUUGUCUUUCCUUUUCAAGUUUUUUCUGUUUUUCCAGCUCAUACUCUUUCCGUCGCUGACUGAAGUCAAAUACUUCUCGACUUACCAACAGAGGAUUGAGCAUCA in your answer.
-0.87
